Consider the following compounds; for each one, report its Stability Short-Term RE.
Assay: Stability of 9 compounds in mouse plasma under storage conditions
Format: in vitro ADME
Conditions: 12 h at 4 °C, high QC (20,000 or 10,000 ng/mL), n = 6
Answers are plain numbers, in %.

# example entries with known answers
COc1c(O)cc(O)c2c(=O)cc(-c3ccccc3)oc12 :: 8.46
O=C(O)[C@H]1O[C@@H](Oc2cc(O)c3c(=O)cc(-c4ccc(O)cc4)oc3c2)[C@H](O)[C@@H](O)[C@@H]1O [Apigenin-7-glucuronide] :: 8.60
O=C(O)[C@H]1O[C@@H](Oc2cc3oc(-c4ccccc4)cc(=O)c3c(O)c2O)[C@H](O)[C@@H](O)[C@@H]1O :: 5.73
COc1c(OC2OC(C(=O)O)C(O)C(O)C2O)cc2oc(-c3ccccc3)cc(=O)c2c1O [Oroxylin A 7-O-beta-D-glucuronide] :: −0.23
O=c1cc(-c2ccccc2)oc2c(O)c(O)cc(O)c12 :: −1.39

Return reported Stability Short-Term RE values for all items listed beneath this line.
1. O=c1cc(-c2ccccc2)oc2cc(O)cc(O)c12
2. COc1c(O)cc2oc(-c3ccccc3)cc(=O)c2c1O

1: −2.74; 2: −4.07

Please look at this compound and report its Stability Short-Term RE: COc1c(O[C@@H]2O[C@H](C(=O)O)[C@@H](O)[C@H](O)[C@H]2O)cc(O)c2c(=O)cc(-c3ccccc3)oc12 [Wogonoside]
3.40

Provenance of the data: paper PMC10460054
